All values here come from patent US4059704A.

- Test system: Rat PCA response
- method: Rat Passive Cutaneous Anaphylaxis (PCA) test
- Format: in vivo, Wistar rats
- setup conditions: 1 h, dose 100 mg/kg, time 60 mins prior to challenge
// condition not met strictly below 40% in inhibition in vivo at 100 mg/kg; condition met otherwise

compound | category label
Cc1c(-c2nnn[nH]2)c(=O)oc2ccccc12 [Example 1, 4-Methyl-3-(tetrazol-5-yl) coumarin, reference compound] | condition met
Cc1ccc2oc(=O)c(-c3nnn[nH]3)c(C)c2c1 | condition not met
Cc1c(-c2nnn[nH]2)c(=O)oc2ccc(Cl)cc12 | condition not met
Cc1c(-c2nnn[nH]2)c(=O)oc2ccc(Br)cc12 | condition met
Cc1c(-c2nnn[nH]2)c(=O)oc2c1ccc1ccccc12 | condition not met
CCc1cc2oc(=O)c(-c3nnn[nH]3)c(C)c2cc1CC | condition met
